test system: linezolid- and vancomycin-resistant Enterococcus faecalis (LVRE); assay: In vitro antibacterial activity, broth microdilution (MIC90); conditions: read-out: Antibacterial activity MIC90, LVRE
READOUT LABEL: MIC (µg/mL)

>>> value_measured("C#CCN1CCN(c2ccc(N3C[C@H](CNC(=S)C(F)F)OC3=O)cc2F)C=N1")
4
>>> value_measured("CC(=O)NC[C@H]1CN(c2ccc(N3C=NN(C)CC3)cc2)C(=O)O1")
16
>>> value_measured("O=C1O[C@@H](Cn2ccnn2)CN1c1ccc(N2C=NNCC2)c(F)c1")
32
>>> value_measured("CC(=O)NC[C@H]1CN(c2ccc(N3C=NN(C(=O)CO)CC3)c(F)c2)C(=O)O1")
8
>>> value_measured("CC(=O)NC[C@H]1CN(c2ccc(N3C=NN(C4CCC4)CC3)c(F)c2)C(=O)O1")
4
>>> value_measured("CC(=O)NC[C@H]1CN(c2ccc(N3C=NOCC3)c(F)c2)C(=O)O1")
16
>>> value_measured("CCN1CCN(c2ccc(N3C[C@H](CNC(=S)OC)OC3=O)cc2F)C=N1")
4
>>> value_measured("O=CN1CCN(c2ccc(N3C[C@H](CNc4ccon4)OC3=O)cc2)C=N1")
32
>>> value_measured("COC(=S)NC[C@H]1CN(c2ccc(N3C=NN(CCOC(C)=O)CC3)c(F)c2)C(=O)O1")
4
>>> value_measured("CC(=O)NC[C@H]1CN(c2ccc(N3C=NN(C#N)CC3)c(F)c2)C(=O)O1")
8
>>> value_measured("CN1CCN(c2ccc(N3C[C@H](CO)OC3=O)cc2F)C=N1")
64
>>> value_measured("CC(=O)NC[C@H]1CN(c2ccc(N3C=NN(C(=S)NCCO)CC3)c(F)c2)C(=O)O1")
8
>>> value_measured("CCN1CCN(c2ccc(N3C[C@H](CNC(=O)C(F)F)OC3=O)cc2F)C=N1")
16
>>> value_measured("CC(=O)NC[C@H]1CN(c2ccc(N3C=NN(C(C)=S)CC3)c(F)c2)C(=O)O1")
4
>>> value_measured("O=C1O[C@@H](CNc2ccon2)CN1c1ccc(N2C=NNCC2)c(F)c1")
8
>>> value_measured("CN1CCN(c2ccc(N3C[C@H](CNc4ccon4)OC3=O)cc2)C=N1")
32
>>> value_measured("CC(=O)NC[C@H]1CN(c2ccc(N3C=NN(CC(=O)NO)CC3)c(F)c2)C(=O)O1")
64

----------
experiment: Cytotoxicity measurement by MTT assay; assay type: cell-based; settings: Chinese hamster; CHO-K1 cells, 48 hours treatment, MTT; read-out: CC50
READOUT LABEL: CC50 at 48 h

>>> value_measured("CN1CCN(c2ccc(N3C[C@H](CNc4ccon4)OC3=O)cc2F)C=N1 [Compound 89]")
"> 130 µM"

----------
assay: Measurement of solubility in water by 1H NMR; assay type: physicochemical; settings: water, thermodynamic from solid
In this section, each of the compounds is paired with its reported solubility at 30 min.
READOUT LABEL: solubility at 30 min (mg/mL)

>>> value_measured("CN1CCN(c2ccc(N3C[C@H](CO)OC3=O)cc2F)C=N1")
136
>>> value_measured("CN1CCN(c2ccc(N3C[C@H](Cn4ccnn4)OC3=O)cc2F)C=N1")
117

----------
target: monoamine oxidase A (MAO A) (Homo sapiens); construct: purchased Sigma-Aldrich (USA); assay: MAO inhibition (MAO-GLO assay); type: biochemical; settings: MAO-GLO kit, compounds at 3.9-500 uM; read-out: MAOA
Sequence (P21397 whole entry): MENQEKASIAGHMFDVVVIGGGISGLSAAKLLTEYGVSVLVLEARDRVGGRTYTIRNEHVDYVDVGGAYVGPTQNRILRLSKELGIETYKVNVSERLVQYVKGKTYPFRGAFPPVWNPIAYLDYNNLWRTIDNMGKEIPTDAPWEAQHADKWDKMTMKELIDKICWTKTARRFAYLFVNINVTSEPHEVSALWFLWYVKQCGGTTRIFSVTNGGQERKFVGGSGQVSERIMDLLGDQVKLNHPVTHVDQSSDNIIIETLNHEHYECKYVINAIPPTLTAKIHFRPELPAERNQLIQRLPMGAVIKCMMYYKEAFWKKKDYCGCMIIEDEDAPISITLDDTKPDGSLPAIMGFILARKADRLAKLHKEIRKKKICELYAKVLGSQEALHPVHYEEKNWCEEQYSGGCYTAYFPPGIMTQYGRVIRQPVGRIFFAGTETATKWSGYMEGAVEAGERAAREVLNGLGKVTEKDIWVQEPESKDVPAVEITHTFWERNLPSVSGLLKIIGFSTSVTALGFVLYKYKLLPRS
READOUT LABEL: IC50 (µM)

>>> value_measured("COC(=S)NC[C@H]1CN(c2ccc(N3C=NN(C=O)CC3)c(F)c2)C(=O)O1 [Compound 53]")
24
>>> value_measured("CN1CCN(c2ccc(N3C[C@H](Cn4ccnn4)OC3=O)cc2F)C=N1 [Compound 83]")
19
>>> value_measured("CN1CCN(c2ccc(N3C[C@H](CNc4ccon4)OC3=O)cc2F)C=N1 [Compound 89]")
5.2
>>> value_measured("CC(=O)NC[C@H]1CN(c2ccc(N3CCOCC3)c(F)c2)C(=O)O1 [Linezolid, linezolid, reference compound]")
7.9

----------
experiment: Measurement of solubility in water by 1H NMR; format: physicochemical; details: water, thermodynamic from solid; read-out: Solubility of methanesulfonate in water
READOUT LABEL: solubility at 30 min (mg/mL)

>>> value_measured("CN1CCN(c2ccc(N3C[C@H](CNc4ccon4)OC3=O)cc2F)C=N1 [Compound 89]")
129

----------
In this section, each of the compounds is paired with its reported MIC.
tested on: linezolid- and vancomycin-resistant Enterococcus faecalis (LVRE); test: In vitro antibacterial activity, broth microdilution (MIC90); settings: read-out: Antibacterial activity MIC90, LVRE
READOUT LABEL: MIC (µg/mL)

>>> value_measured("CCOC(=O)N1CCN(c2ccc(N3C[C@H](CNC(C)=O)OC3=O)cc2F)C=N1")
8
>>> value_measured("O=CN1CCN(c2c(F)cc(N3C[C@H](CNc4ccon4)OC3=O)cc2F)C=N1")
16
>>> value_measured("CCNC(=S)NC[C@H]1CN(c2ccc(N3C=NN(C=O)CC3)c(F)c2)C(=O)O1")
8
>>> value_measured("N#CCC(=O)NC[C@H]1CN(c2ccc(N3C=NN(C=O)CC3)c(F)c2)C(=O)O1")
32
>>> value_measured("CC(=O)NC[C@H]1CN(c2ccc(N3C=NN(S(=O)(=O)N(C)C)CC3)c(F)c2)C(=O)O1")
4
>>> value_measured("O=C(NC[C@H]1CN(c2ccc(N3C=NN(C(=O)CO)CC3)c(F)c2)C(=O)O1)C(F)F")
8
>>> value_measured("COC(=S)N1CCN(c2ccc(N3C[C@H](CNC(C)=O)OC3=O)cc2F)C=N1")
4
>>> value_measured("CCN1CCN(c2ccc(N3C[C@H](CNc4ccon4)OC3=O)cc2F)C=N1")
8
>>> value_measured("CN1CCN(c2ccc(N3C[C@H](Cn4ccnn4)OC3=O)cc2F)C=N1")
16
